Measured values drawn from PubChem BioAssay (NCI) for this set.

# Tested on: A549 NSCLC
# EXPERIMENTAL DETAILS: NCI tumour cell line growth inhibition, 48 h
PROPERTY: TGI

Return TGI (reported value) for this compound: "CN(CC(N)=O)C(=O)N(CCCl)N=O"
> 100 µM

Assign TGI to the following record: COc1cccc(N2C(=O)C3c4[nH]c5ccc(C)cc5c4C4CCC(C(C)(C)C)CC4C3C2=O)c1 (stereo unspecified)
> 10 µM

Please indicate TGI recorded for "COC(=O)C(C)(C)N=CN(C)C"
> 100 µM

Using known records, supply TGI for CC(C)(CC(O)C#N)/[N+]([O-])=[N+](\[O-])C(C)(C)CC(O)C#N (stereo unspecified)
> 100 µM

Specify TGI for "COC(=O)c1c(OC(C)=O)ccc2c1c1c(OC(C)=O)c3ccccc3c(OC(C)=O)c1n2Cc1ccccc1" and stop.
34.2 µM

Specify reported TGI for the compound shown: "COc1cc(/C=C(/C#N)C(N)=O)ccc1O"
> 100 µM

# map each compound to its TGI
1. CCOc1cc(NC(C)=O)ccc1C(=O)NN1C(=O)C(Cl)C1c1ccco1 (stereo unspecified)
2. BrCc1ccc(CBr)cc1
3. Cc1cc(N(CCC#N)CCC#N)ccc1/C=C1N=C(/C=C\c2ccccc2)N(c2ccc(Cl)cc2)C\1=O

1. 38.8 µM
2. 76.8 µM
3. > 100 µM

Give one value of TGI per listed compound.
1. COc1ccc(C=O)c(NC(=O)C(C)C)c1
2. CC(C)c1c2[nH]c3ccccc3c2c(C(C)C)c2[nH]c3ccccc3c12

1: > 100 µM; 2: > 100 µM
